# Tested on: Staphylococcus aureus
# assay.procedure: Minimum inhibitory concentration against growth of Methicillin resistant […] aureus
# Type: functional

compound.string	experimental.target	MIC
CCCN(CCC)[C@H](CC(C)C)C(=O)N[C@H]1C(=O)N[C@@H](CC(N)=O)C(=O)N[C@H]2C(=O)N[C@H]3C(=O)N[C@H](C(=O)N[C@H](C(=O)NCC(=O)O)c4cc(O)cc(O)c4-c4cc3ccc4O)[C@H](O)c3ccc(c(Cl)c3)Oc3cc2cc(c3O[C@@H]2O[C@@H](CO)[C@@H](O)[C@H](O)[C@@H]2O[C@H]2C[C@](C)(Nc3ccc(F)cc3)[C@H](O)[C@H](C)O2)Oc2ccc(cc2Cl)[C@H]1O	Staphylococcus aureus	> 10 µg/mL
CCCN[C@H](CC(C)C)C(=O)N[C@H]1C(=O)N[C@@H](CC(N)=O)C(=O)N[C@H]2C(=O)N[C@H]3C(=O)N[C@H](C(=O)N[C@H](C(=O)NCC(=O)O)c4cc(O)cc(O)c4-c4cc3ccc4O)[C@H](O)c3ccc(c(Cl)c3)Oc3cc2cc(c3O[C@@H]2O[C@@H](CO)[C@@H](O)[C@H](O)[C@@H]2O[C@H]2C[C@](C)(Nc3ccc(-c4ccccc4)cc3)[C@H](O)[C@H](C)O2)Oc2ccc(cc2Cl)[C@H]1O	Staphylococcus aureus	5 µg/mL

----------
# System: Staphylococcus aureus
# assay.procedure: Minimum inhibitory concentration against growth of Methicillin resistant […] aureus
# Assay type: functional
MIC by entry:

molecule	comparison.symbol	MIC (µg/mL)
CCC(CC)N[C@H](CC(C)C)C(=O)N[C@H]1C(=O)N[C@@H](CC(N)=O)C(=O)N[C@H]2C(=O)N[C@H]3C(=O)N[C@H](C(=O)N[C@H](C(=O)NCC(=O)O)c4cc(O)cc(O)c4-c4cc3ccc4O)[C@H](O)c3ccc(c(Cl)c3)Oc3cc2cc(c3O[C@@H]2O[C@@H](CO)[C@@H](O)[C@H](O)[C@@H]2O[C@H]2C[C@](C)(Nc3ccc(OC)cc3)[C@H](O)[C@H](C)O2)Oc2ccc(cc2Cl)[C@H]1O	>	10
CN[C@H](CC(C)C)C(=O)N[C@H]1C(=O)N[C@@H](CC(N)=O)C(=O)N[C@H]2C(=O)N[C@H]3C(=O)N[C@H](C(=O)N[C@H](C(=O)O)c4cc(O)cc(O)c4-c4cc3ccc4O)[C@H](O)c3ccc(c(Cl)c3)Oc3cc2cc(c3O[C@@H]2O[C@H](CO)[C@@H](O)[C@H](O)[C@H]2O[C@H]2C[C@](C)(N)[C@H](O)[C@H](C)O2)Oc2ccc(cc2Cl)[C@H]1O	=	1.25
CCC(CC)N[C@H](CC(C)C)C(=O)N[C@H]1C(=O)N[C@@H](CC(N)=O)C(=O)N[C@H]2C(=O)N[C@H]3C(=O)N[C@H](C(=O)N[C@H](C(=O)NCC(=O)O)c4cc(O)cc(O)c4-c4cc3ccc4O)[C@H](O)c3ccc(c(Cl)c3)Oc3cc2cc(c3O[C@@H]2O[C@@H](CO)[C@@H](O)[C@H](O)[C@@H]2OC2C[C@](C)(NC(CC)CC)[C@H](O)[C@H](C)O2)Oc2ccc(cc2Cl)[C@H]1O (single isomer, unassigned)	>	10
CCCN(CCC)[C@H](CC(C)C)C(=O)N[C@H]1C(=O)N[C@@H](CC(N)=O)C(=O)N[C@H]2C(=O)N[C@H]3C(=O)N[C@H](C(=O)N[C@H](C(=O)NCC(=O)O)c4cc(O)cc(O)c4-c4cc3ccc4O)[C@H](O)c3ccc(c(Cl)c3)Oc3cc2cc(c3O[C@@H]2O[C@@H](CO)[C@@H](O)[C@H](O)[C@@H]2O[C@H]2C[C@](C)(Nc3ccc(OC)cc3)[C@H](O)[C@H](C)O2)Oc2ccc(cc2Cl)[C@H]1O	=	10
CCC(CC)N[C@H](CC(C)C)C(=O)N[C@H]1C(=O)N[C@@H](CC(N)=O)C(=O)N[C@H]2C(=O)N[C@H]3C(=O)N[C@H](C(=O)N[C@H](C(=O)NCC(=O)O)c4cc(O)cc(O)c4-c4cc3ccc4O)[C@H](O)c3ccc(c(Cl)c3)Oc3cc2cc(c3O[C@@H]2O[C@@H](CO)[C@@H](O)[C@H](O)[C@@H]2O[C@H]2C[C@](C)(N)[C@H](O)[C@H](C)O2)Oc2ccc(cc2Cl)[C@H]1O	=	10

----------
# Test system: Staphylococcus aureus
# assay.procedure: Minimum inhibitory concentration against growth of Methicillin resistant […] aureus
# Type: functional
quantity.measured: MIC

compound.string	experimental.target	val
C/C=C/CN(C/C=C/C)[C@H](CC(C)C)C(=O)N[C@H]1C(=O)N[C@@H](CC(N)=O)C(=O)N[C@H]2C(=O)N[C@H]3C(=O)N[C@H](C(=O)N[C@H](C(=O)NCC(=O)O)c4cc(O)cc(O)c4-c4cc3ccc4O)[C@H](O)c3ccc(c(Cl)c3)Oc3cc2cc(c3O[C@@H]2O[C@@H](CO)[C@@H](O)[C@H](O)[C@@H]2O[C@H]2C[C@](C)(Nc3ccc(OC)cc3)[C@H](O)[C@H](C)O2)Oc2ccc(cc2Cl)[C@H]1O	Staphylococcus aureus	> 10 µg/mL
CCC(CC)N[C@H](CC(C)C)C(=O)N[C@H]1C(=O)N[C@@H](CC(N)=O)C(=O)N[C@H]2C(=O)N[C@H]3C(=O)N[C@H](C(=O)N[C@H](C(=O)NCC(=O)O)c4cc(O)cc(O)c4-c4cc3ccc4O)[C@H](O)c3ccc(c(Cl)c3)Oc3cc2cc(c3O[C@@H]2O[C@@H](CO)[C@@H](O)[C@H](O)[C@@H]2O[C@H]2C[C@](C)(Nc3ccc(Cl)cc3)[C@H](O)[C@H](C)O2)Oc2ccc(cc2Cl)[C@H]1O	Staphylococcus aureus	> 10 µg/mL
CCCN(CCC)[C@H](CC(C)C)C(=O)N[C@H]1C(=O)N[C@@H](CC(N)=O)C(=O)N[C@H]2C(=O)N[C@H]3C(=O)N[C@H](C(=O)N[C@H](C(=O)NCC(=O)O)c4cc(O)cc(O)c4-c4cc3ccc4O)[C@H](O)c3ccc(c(Cl)c3)Oc3cc2cc(c3O[C@@H]2O[C@@H](CO)[C@@H](O)[C@H](O)[C@@H]2O[C@H]2C[C@](C)(Nc3ccc(-c4ccccc4)cc3)[C@H](O)[C@H](C)O2)Oc2ccc(cc2Cl)[C@H]1O	Staphylococcus aureus	5 µg/mL

----------
# Tested on: Staphylococcus aureus
# assay.procedure: Minimum inhibitory concentration against growth of Methicillin resistant […] aureus
# Type: functional

compound.string	experimental.target	unit.info	MIC
C/C=C/CN[C@H](CC(C)C)C(=O)N[C@H]1C(=O)N[C@@H](CC(N)=O)C(=O)N[C@H]2C(=O)N[C@H]3C(=O)N[C@H](C(=O)N[C@H](C(=O)NCC(=O)O)c4cc(O)cc(O)c4-c4cc3ccc4O)[C@H](O)c3ccc(c(Cl)c3)Oc3cc2cc(c3O[C@@H]2O[C@@H](CO)[C@@H](O)[C@H](O)[C@@H]2O[C@H]2C[C@](C)(Nc3ccc(OC)cc3)[C@H](O)[C@H](C)O2)Oc2ccc(cc2Cl)[C@H]1O	Staphylococcus aureus	µg/mL	10
CC(C)C[C@H](C(=O)N[C@H]1C(=O)N[C@@H](CC(N)=O)C(=O)N[C@H]2C(=O)N[C@H]3C(=O)N[C@H](C(=O)N[C@H](C(=O)NCC(=O)O)c4cc(O)cc(O)c4-c4cc3ccc4O)[C@H](O)c3ccc(c(Cl)c3)Oc3cc2cc(c3O[C@@H]2O[C@@H](CO)[C@@H](O)[C@H](O)[C@@H]2O[C@H]2C[C@](C)(N)[C@H](O)[C@H](C)O2)Oc2ccc(cc2Cl)[C@H]1O)N(C)C(=O)OCC1c2ccccc2-c2ccccc21	Staphylococcus aureus	µg/mL	10
CCCN(CCC)[C@H](CC(C)C)C(=O)N[C@H]1C(=O)N[C@@H](CC(N)=O)C(=O)N[C@H]2C(=O)N[C@H]3C(=O)N[C@H](C(=O)N[C@H](C(=O)NCC(=O)O)c4cc(O)cc(O)c4-c4cc3ccc4O)[C@H](O)c3ccc(c(Cl)c3)Oc3cc2cc(c3O[C@@H]2O[C@@H](CO)[C@@H](O)[C@H](O)[C@@H]2O[C@H]2C[C@](C)(Nc3ccc(Cl)cc3)[C@H](O)[C@H](C)O2)Oc2ccc(cc2Cl)[C@H]1O	Staphylococcus aureus	µg/mL	5

----------
# Test system: Staphylococcus aureus
# assay.procedure: Minimum inhibitory concentration against growth of Methicillin resistant […] aureus
# Type: functional
quantity.measured: MIC (µg/mL)

compound.string	experimental.target	quantity.measured	unit.info	comparison.symbol	val
CCCN[C@H](CC(C)C)C(=O)N[C@H]1C(=O)N[C@@H](CC(N)=O)C(=O)N[C@H]2C(=O)N[C@H]3C(=O)N[C@H](C(=O)N[C@H](C(=O)NCC(=O)O)c4cc(O)cc(O)c4-c4cc3ccc4O)[C@H](O)c3ccc(c(Cl)c3)Oc3cc2cc(c3O[C@@H]2O[C@@H](CO)[C@@H](O)[C@H](O)[C@@H]2O[C@H]2C[C@](C)(Nc3ccc(Cl)cc3)[C@H](O)[C@H](C)O2)Oc2ccc(cc2Cl)[C@H]1O	Staphylococcus aureus	MIC	µg/mL	=	10
CC(C)C[C@@H](NC(=O)OCC1c2ccccc2-c2ccccc21)C(=O)N[C@H]1C(=O)N[C@@H](CC(N)=O)C(=O)N[C@H]2C(=O)N[C@H]3C(=O)N[C@H](C(=O)N[C@H](C(=O)NCC(=O)O)c4cc(O)cc(O)c4-c4cc3ccc4O)[C@H](O)c3ccc(c(Cl)c3)Oc3cc2cc(c3O[C@@H]2O[C@@H](CO)[C@@H](O)[C@H](O)[C@@H]2O[C@H]2C[C@](C)(N)[C@H](O)[C@H](C)O2)Oc2ccc(cc2Cl)[C@H]1O	Staphylococcus aureus	MIC	µg/mL	=	5
CCC(CC)N[C@H](CC(C)C)C(=O)N[C@H]1C(=O)N[C@@H](CC(N)=O)C(=O)N[C@H]2C(=O)N[C@H]3C(=O)N[C@H](C(=O)N[C@H](C(=O)NCC(=O)O)c4cc(O)cc(O)c4-c4cc3ccc4O)[C@H](O)c3ccc(c(Cl)c3)Oc3cc2cc(c3O[C@@H]2O[C@@H](CO)[C@@H](O)[C@H](O)[C@@H]2O[C@H]2C[C@](C)(Nc3ccc(F)cc3)[C@H](O)[C@H](C)O2)Oc2ccc(cc2Cl)[C@H]1O	Staphylococcus aureus	MIC	µg/mL	>	10
CCC(CC)N[C@H](CC(C)C)C(=O)N[C@H]1C(=O)N[C@@H](CC(N)=O)C(=O)N[C@H]2C(=O)N[C@H]3C(=O)N[C@H](C(=O)N[C@H](C(=O)NCC(=O)O)c4cc(O)cc(O)c4-c4cc3ccc4O)[C@H](O)c3ccc(c(Cl)c3)Oc3cc2cc(c3O[C@@H]2O[C@@H](CO)[C@@H](O)[C@H](O)[C@@H]2O[C@H]2C[C@](C)(Nc3ccc(-c4ccccc4)cc3)[C@H](O)[C@H](C)O2)Oc2ccc(cc2Cl)[C@H]1O	Staphylococcus aureus	MIC	µg/mL	=	2.5
CC(C)C[C@@H](Nc1ccc(F)cc1)C(=O)N[C@H]1C(=O)N[C@@H](CC(N)=O)C(=O)N[C@H]2C(=O)N[C@H]3C(=O)N[C@H](C(=O)N[C@H](C(=O)NCC(=O)O)c4cc(O)cc(O)c4-c4cc3ccc4O)[C@H](O)c3ccc(c(Cl)c3)Oc3cc2cc(c3O[C@@H]2O[C@@H](CO)[C@@H](O)[C@H](O)[C@@H]2O[C@H]2C[C@](C)(Nc3ccc(F)cc3)[C@H](O)[C@H](C)O2)Oc2ccc(cc2Cl)[C@H]1O	Staphylococcus aureus	MIC	µg/mL	>	10
